- test target: human KOR (CHO-KOR) (Homo sapiens)
- Sequence (P41145 whole entry): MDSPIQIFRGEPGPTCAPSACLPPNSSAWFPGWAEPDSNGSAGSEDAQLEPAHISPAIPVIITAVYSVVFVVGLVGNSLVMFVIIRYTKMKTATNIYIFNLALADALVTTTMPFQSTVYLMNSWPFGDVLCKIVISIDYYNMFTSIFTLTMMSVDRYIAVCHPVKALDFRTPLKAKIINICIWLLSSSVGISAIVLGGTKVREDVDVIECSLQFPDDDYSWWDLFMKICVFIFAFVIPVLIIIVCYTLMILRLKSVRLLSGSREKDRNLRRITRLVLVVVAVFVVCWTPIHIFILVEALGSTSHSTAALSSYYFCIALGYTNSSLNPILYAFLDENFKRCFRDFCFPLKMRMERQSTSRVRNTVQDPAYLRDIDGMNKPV
- experimental details: Stimulation of [35S]-GTPγS binding, CHO-KOR membranes
measurement name: EC50 (µM)
One number for each entry, in µM.

>>> recorded_value("COc1ccccc1Cc1ccc2c(c1)[C@H](NC(=O)[C@@H](N)Cc1c(C)cc(O)cc1C)CCN2")
1
>>> recorded_value("Cc1cc(O)cc(C)c1C[C@H](N)C(=O)N[C@@H]1CCNc2ccc(CC3Cc4cccc(O)c4C3)cc21 (stereo partly shown)")
0.025
>>> recorded_value("Cc1cc(O)cc(C)c1C[C@H](N)C(=O)N[C@@H]1CCNc2ccc(Cc3cccc(O)c3)cc21")
0.23

Consider now this further compound.
Endpoint output: EC50 of Cc1cc(O)cc(C)c1C[C@H](N)C(=O)N[C@@H]1CCNc2ccc(Cc3ccccc3O)cc21 . Value?
0.27

====

- test target: rat DOR (C6-DOR) (Rattus norvegicus, UniProt P33533)
- Sequence (P33533 whole entry): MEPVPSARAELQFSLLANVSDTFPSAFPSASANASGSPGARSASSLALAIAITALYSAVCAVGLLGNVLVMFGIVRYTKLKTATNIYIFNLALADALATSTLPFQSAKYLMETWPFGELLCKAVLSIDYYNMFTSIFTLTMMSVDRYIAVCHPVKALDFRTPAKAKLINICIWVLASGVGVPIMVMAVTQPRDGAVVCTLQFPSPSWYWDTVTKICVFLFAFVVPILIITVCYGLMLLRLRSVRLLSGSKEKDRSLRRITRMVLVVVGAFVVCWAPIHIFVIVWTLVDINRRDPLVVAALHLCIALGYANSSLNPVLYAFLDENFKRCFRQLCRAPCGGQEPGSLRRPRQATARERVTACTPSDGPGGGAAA
- experimental details: Stimulation of [35S]-GTPγS binding, C6-DOR membranes
- Type: biochemical
- study conditions: percent maximal stimulation relative to DPDPE at 10 μM; dns: does not stimulate
measurement name: % stimulation DOR

# count of solved cases: 4
>>> recorded_value("COc1ccccc1Cc1ccc2c(c1)[C@H](NC(=O)[C@@H](N)Cc1c(C)cc(O)cc1C)CCN2")
"16 (2.2) %"
>>> recorded_value("COc1ccc2c(c1)CC(Cc1ccc3c(c1)[C@H](NC(=O)[C@@H](N)Cc1c(C)cc(O)cc1C)CCN3)C2 (some centres unmarked)")
"dns^d"
>>> recorded_value("COc1cccc2c1CC(Cc1ccc3c(c1)[C@H](NC(=O)[C@@H](N)Cc1c(C)cc(O)cc1C)CCN3)C2 (some centres unmarked)")
"dns^d"
>>> recorded_value("COc1cccc(Cc2ccc3c(c2)[C@H](NC(=O)[C@@H](N)Cc2c(C)cc(O)cc2C)CCN3)c1")
"10 (2.6) %"

Endpoint output: % stimulation DOR of Cc1cc(O)cc(C)c1C[C@H](N)C(=O)N[C@@H]1CCNc2ccc(CC3Cc4ccc(O)cc4C3)cc21 (some centres unmarked) . Value?
dns

====

- test target: rat MOR (C6-MOR) (Rattus norvegicus, UniProt P33535)
- Sequence (P33535 whole entry): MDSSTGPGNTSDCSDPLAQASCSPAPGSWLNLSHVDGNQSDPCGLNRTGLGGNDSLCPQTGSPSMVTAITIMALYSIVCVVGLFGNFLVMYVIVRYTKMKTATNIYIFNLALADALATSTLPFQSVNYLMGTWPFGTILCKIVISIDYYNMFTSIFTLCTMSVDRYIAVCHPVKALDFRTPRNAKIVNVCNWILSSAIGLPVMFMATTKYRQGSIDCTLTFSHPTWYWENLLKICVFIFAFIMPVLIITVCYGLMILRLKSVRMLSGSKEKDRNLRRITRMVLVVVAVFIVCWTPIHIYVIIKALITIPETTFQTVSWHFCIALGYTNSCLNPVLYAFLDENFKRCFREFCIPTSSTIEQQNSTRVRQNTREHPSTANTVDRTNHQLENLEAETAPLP
Assign pKi to each entry below.
Answers are plain numbers, as −log10 of the molar value.

# count of solved cases: 3
>>> recorded_value("Cc1cc(O)cc(C)c1C[C@H](N)C(=O)N[C@@H]1CCNc2ccc(Cc3ccc(O)cc3)cc21 [Compound 4f]")
8.77
>>> recorded_value("COc1ccc2c(c1)CC(Cc1ccc3c(c1)[C@H](NC(=O)[C@@H](N)Cc1c(C)cc(O)cc1C)CCN3)C2 (some centres unmarked) [Compound 8b]")
10.10
>>> recorded_value("Cc1cc(O)cc(C)c1C[C@H](N)C(=O)N[C@@H]1CCNc2ccc(Cc3ccccc3O)cc21 [Compound 4d]")
9.59

Give pKi for each listed item.
1. COc1cccc(Cc2ccc3c(c2)[C@H](NC(=O)[C@@H](N)Cc2c(C)cc(O)cc2C)CCN3)c1 [Compound 4b]
2. COc1ccc(Cc2ccc3c(c2)[C@H](NC(=O)[C@@H](N)Cc2c(C)cc(O)cc2C)CCN3)cc1 [Compound 4c]
3. Cc1cc(O)cc(C)c1C[C@H](N)C(=O)N[C@@H]1CCNc2ccc(CC3Cc4ccc(O)cc4C3)cc21 (some centres unmarked) [Compound 8d]

1. 9.96
2. 9.54
3. 9.09

Give pKi for each listed item.
1. Cc1cc(O)cc(C)c1C[C@H](N)C(=O)N[C@@H]1CCNc2ccc(Cc3cccc(O)c3)cc21 [Compound 4e]
2. COc1ccccc1Cc1ccc2c(c1)[C@H](NC(=O)[C@@H](N)Cc1c(C)cc(O)cc1C)CCN2 [Compound 4a]

9.72
9.47
